# Test system: Mycobacterium tuberculosis Erdman (autoluminescent)
# METHOD: total FIC50 (Loewe) at 50% inhibition, three-drug combination (log2); higher = more antagonistic
# RECORDED CONDITIONS: in vitro model: standard 7H9 glycerol; time point: constant = terminal
Form field: total FIC50 (one value per entry).
Just the number, please.

Examples from the recorded data:
COMPOUND	OBS VALUE
NNC(=O)c1ccncc1 [isoniazid] + CC(=O)NC[C@H]1CN(c2ccc(N3CCOCC3)c(F)c2)C(=O)O1 [linezolid] + CO[C@H]1/C=C/O[C@@]2(C)Oc3c(C)c(O)c4c(O)c(c(/C=N/N5CCN(C)CC5)c(O)c4c3C2=O)NC(=O)/C(C)=C\C=C\[C@H](C)[C@H](O)[C@@H](C)[C@@H](O)[C@@H](C)[C@H](OC(C)=O)[C@@H]1C [rifampicin]	0.299
COc1nc2ccc(Br)cc2cc1[C@@H](c1ccccc1)[C@@](O)(CCN(C)C)c1cccc2ccccc12 [bedaquiline] + CC[C@@H](CO)NCCN[C@@H](CC)CO [ethambutol] + COc1c(N2C[C@@H]3CCCN[C@@H]3C2)c(F)cc2c(=O)c(C(=O)O)cn(C3CC3)c12 [moxifloxacin]	0.482
COc1nc2ccc(Br)cc2cc1[C@@H](c1ccccc1)[C@@](O)(CCN(C)C)c1cccc2ccccc12 [bedaquiline] + CC[C@@H](CO)NCCN[C@@H](CC)CO [ethambutol] + NC(=O)c1cnccn1 [pyrazinamide]	0.382

Noted for NNC(=O)c1ccncc1 [isoniazid] + CC(=O)NC[C@H]1CN(c2ccc(N3CCOCC3)c(F)c2)C(=O)O1 [linezolid] + NC(=O)c1cnccn1 [pyrazinamide] : its total FIC50 reads -5.13

---

Form field: Einf (one value per entry).
# Test system: Mycobacterium tuberculosis Erdman (autoluminescent)
# METHOD: Einf, fitted maximum growth inhibition of combination (fraction); higher = stronger maximal inhibition
# RECORDED CONDITIONS: in vitro model: butyrate; time point: terminal (~4-5 doublings, model-specific)
Just the number, please.

COMPOUND	ASSAY TARGET	Einf
CC(C)/N=c1\cc2n(-c3ccc(Cl)cc3)c3ccccc3nc-2cc1Nc1ccc(Cl)cc1 [clofazimine] + CO[C@H]1/C=C/O[C@@]2(C)Oc3c(C)c(O)c4c(O)c(c(/C=N/N5CCN(C6CCCC6)CC5)c(O)c4c3C2=O)NC(=O)/C(C)=C\C=C\[C@H](C)[C@H](O)[C@@H](C)[C@@H](O)[C@@H](C)[C@H](OC(C)=O)[C@@H]1C	Mycobacterium tuberculosis Erdman (autoluminescent)	0.986

Now for the compound whose Einf we want.
Entry NNC(=O)c1ccncc1 [isoniazid] + O=[N+]([O-])c1cn2c(n1)OC[C@@H](OCc1ccc(OC(F)(F)F)cc1)C2 : Einf on Mycobacterium tuberculosis Erdman (autoluminescent) = 0.973

---

# System: Mycobacterium tuberculosis Erdman (autoluminescent)
# METHOD: Einf, fitted maximum growth inhibition of three-drug combination (fraction); higher = stronger maximal inhibition
# RECORDED CONDITIONS: in vitro model: valerate; time point: constant (~7 days, model-specific)
READOUT KIND: Einf
Just the number, please.

Examples from the recorded data:
COMPOUND	OBS VALUE
CC[C@@H](CO)NCCN[C@@H](CC)CO [ethambutol] + COc1c(N2C[C@@H]3CCCN[C@@H]3C2)c(F)cc2c(=O)c(C(=O)O)cn(C3CC3)c12 [moxifloxacin] + CO[C@H]1/C=C/O[C@@]2(C)Oc3c(C)c(O)c4c(O)c(c(/C=N/N5CCN(C)CC5)c(O)c4c3C2=O)NC(=O)/C(C)=C\C=C\[C@H](C)[C@H](O)[C@@H](C)[C@@H](O)[C@@H](C)[C@H](OC(C)=O)[C@@H]1C [rifampicin]	0.867
CC(C)/N=c1\cc2n(-c3ccc(Cl)cc3)c3ccccc3nc-2cc1Nc1ccc(Cl)cc1 [clofazimine] + CC(=O)NC[C@H]1CN(c2ccc(N3CCOCC3)c(F)c2)C(=O)O1 [linezolid] + CO[C@H]1/C=C/O[C@@]2(C)Oc3c(C)c(O)c4c(O)c(c(/C=N/N5CCN(C)CC5)c(O)c4c3C2=O)NC(=O)/C(C)=C\C=C\[C@H](C)[C@H](O)[C@@H](C)[C@@H](O)[C@@H](C)[C@H](OC(C)=O)[C@@H]1C [rifampicin]	0.885
O=[N+]([O-])c1cn2c(n1)OC[C@@H](OCc1ccc(OC(F)(F)F)cc1)C2 [pretomanid] + NC(=O)c1cnccn1 [pyrazinamide] + CO[C@H]1/C=C/O[C@@]2(C)Oc3c(C)c(O)c4c(O)c(c(/C=N/N5CCN(C6CCCC6)CC5)c(O)c4c3C2=O)NC(=O)/C(C)=C\C=C\[C@H](C)[C@H](O)[C@@H](C)[C@@H](O)[C@@H](C)[C@H](OC(C)=O)[C@@H]1C [rifapentine]	0.855
COc1nc2ccc(Br)cc2cc1[C@@H](c1ccccc1)[C@@](O)(CCN(C)C)c1cccc2ccccc12 [bedaquiline] + O=[N+]([O-])c1cn2c(n1)OC[C@@H](OCc1ccc(OC(F)(F)F)cc1)C2 [pretomanid] + CO[C@H]1/C=C/O[C@@]2(C)Oc3c(C)c(O)c4c(O)c(c(/C=N/N5CCN(C6CCCC6)CC5)c(O)c4c3C2=O)NC(=O)/C(C)=C\C=C\[C@H](C)[C@H](O)[C@@H](C)[C@@H](O)[C@@H](C)[C@H](OC(C)=O)[C@@H]1C [rifapentine]	0.904

Now for the compound whose Einf we want.
Entry CC(C)/N=c1\cc2n(-c3ccc(Cl)cc3)c3ccccc3nc-2cc1Nc1ccc(Cl)cc1 [clofazimine] + NC(=O)c1cnccn1 [pyrazinamide] + CO[C@H]1/C=C/O[C@@]2(C)Oc3c(C)c(O)c4c(O)c(c(/C=N/N5CCN(C6CCCC6)CC5)c(O)c4c3C2=O)NC(=O)/C(C)=C\C=C\[C@H](C)[C@H](O)[C@@H](C)[C@@H](O)[C@@H](C)[C@H](OC(C)=O)[C@@H]1C [rifapentine] : Einf on Mycobacterium tuberculosis Erdman (autoluminescent) = 0.911

---

# System: Mycobacterium tuberculosis Erdman (autoluminescent)
# METHOD: AUC25, normalised area under dose response up to IC25 (three-drug combination) (fraction (0-1)); higher = more potent at low dose
# RECORDED CONDITIONS: in vitro model: valerate; time point: terminal (~4-5 doublings, model-specific)
Form field: AUC25 (one value per entry).
Just the number, please.

COMPOUND	READOUT KIND	OBS VALUE
CC(C)/N=c1\cc2n(-c3ccc(Cl)cc3)c3ccccc3nc-2cc1Nc1ccc(Cl)cc1 [clofazimine] + O=[N+]([O-])c1cn2c(n1)OC[C@@H](OCc1ccc(OC(F)(F)F)cc1)C2 [pretomanid] + CO[C@H]1/C=C/O[C@@]2(C)Oc3c(C)c(O)c4c(O)c(c(/C=N/N5CCN(C)CC5)c(O)c4c3C2=O)NC(=O)/C(C)=C\C=C\[C@H](C)[C@H](O)[C@@H](C)[C@@H](O)[C@@H](C)[C@H](OC(C)=O)[C@@H]1C [rifampicin]	AUC25	0.0551

Now for the compound whose AUC25 we want.
Noted for CC(C)/N=c1\cc2n(-c3ccc(Cl)cc3)c3ccccc3nc-2cc1Nc1ccc(Cl)cc1 [clofazimine] + NNC(=O)c1ccncc1 [isoniazid] + O=[N+]([O-])c1cn2c(n1)OC[C@@H](OCc1ccc(OC(F)(F)F)cc1)C2 [pretomanid] : its AUC25 reads 0.0945

---

# Test system: Mycobacterium tuberculosis Erdman (autoluminescent)
# METHOD: AUC25, normalised area under dose response up to IC25 (fraction (0-1)); higher = more potent at low dose
# RECORDED CONDITIONS: in vitro model: dormancy (butyrate + nitrate, low O2); time point: terminal (~4-5 doublings, model-specific)
Form field: AUC25 (one value per entry).

Examples from the recorded data:
COMPOUND	ASSAY TARGET	READOUT KIND	OBS VALUE
COc1nc2ccc(Br)cc2cc1[C@@H](c1ccccc1)[C@@](O)(CCN(C)C)c1cccc2ccccc12 [bedaquiline] + O=[N+]([O-])c1cn2c(n1)OC[C@@H](OCc1ccc(OC(F)(F)F)cc1)C2 [pretomanid]	Mycobacterium tuberculosis Erdman (autoluminescent)	AUC25	0.0475
COc1nc2ccc(Br)cc2cc1[C@@H](c1ccccc1)[C@@](O)(CCN(C)C)c1cccc2ccccc12 [bedaquiline] + CC[C@@H](CO)NCCN[C@@H](CC)CO [ethambutol]	Mycobacterium tuberculosis Erdman (autoluminescent)	AUC25	0.131
CC(C)/N=c1\cc2n(-c3ccc(Cl)cc3)c3ccccc3nc-2cc1Nc1ccc(Cl)cc1 [clofazimine] + CO[C@H]1/C=C/O[C@@]2(C)Oc3c(C)c(O)c4c(O)c(c(/C=N/N5CCN(C6CCCC6)CC5)c(O)c4c3C2=O)NC(=O)/C(C)=C\C=C\[C@H](C)[C@H](O)[C@@H](C)[C@@H](O)[C@@H](C)[C@H](OC(C)=O)[C@@H]1C	Mycobacterium tuberculosis Erdman (autoluminescent)	AUC25	0.057

Noted for COc1c(N2C[C@@H]3CCCN[C@@H]3C2)c(F)cc2c(=O)c(C(=O)O)cn(C3CC3)c12 [moxifloxacin] + NC(=O)c1cnccn1 [pyrazinamide] : its AUC25 reads 0.0636

Noted for CC[C@@H](CO)NCCN[C@@H](CC)CO [ethambutol] + CC(=O)NC[C@H]1CN(c2ccc(N3CCOCC3)c(F)c2)C(=O)O1 [linezolid] : its AUC25 reads 0.106

Noted for CC[C@@H](CO)NCCN[C@@H](CC)CO [ethambutol] + CO[C@H]1/C=C/O[C@@]2(C)Oc3c(C)c(O)c4c(O)c(c(/C=N/N5CCN(C)CC5)c(O)c4c3C2=O)NC(=O)/C(C)=C\C=C\[C@H](C)[C@H](O)[C@@H](C)[C@@H](O)[C@@H](C)[C@H](OC(C)=O)[C@@H]1C [rifampicin] : its AUC25 reads 0.067

Noted for COc1nc2ccc(Br)cc2cc1[C@@H](c1ccccc1)[C@@](O)(CCN(C)C)c1cccc2ccccc12 [bedaquiline] + NNC(=O)c1ccncc1 [isoniazid] : its AUC25 reads 0.0512

Noted for NNC(=O)c1ccncc1 [isoniazid] + CO[C@H]1/C=C/O[C@@]2(C)Oc3c(C)c(O)c4c(O)c(c(/C=N/N5CCN(C6CCCC6)CC5)c(O)c4c3C2=O)NC(=O)/C(C)=C\C=C\[C@H](C)[C@H](O)[C@@H](C)[C@@H](O)[C@@H](C)[C@H](OC(C)=O)[C@@H]1C [rifapentine] : its AUC25 reads 0.0384

Noted for NNC(=O)c1ccncc1 [isoniazid] + NC(=O)c1cnccn1 [pyrazinamide] : its AUC25 reads 0.0579
